- Test system: Mus musculus
- Method Description: In vivo antitumor activity against P388 murine leukemia as percentage increase in life span as compared with the untreated at a dose of 0.125 mg/kg administered intraperitoneally
- Assay type: functional
- Particulars: P388, ip, route intraperitoneal
compounds and their reported ILS at 0.125 mg/kg
Assay Metric: ILS at 0.125 mg/kg (%)

INSERT INTO measurements (compound, data_value) VALUES
  ('COC(=O)c1[nH]c2c(c1C(=O)OC)C13CC1CN(C(=O)c1cc4cc(NC(=O)c5cc6ccccc6[nH]5)ccc4[nH]1)C3=CC2=O (centres undefined)', 102),
  ('COC(=O)c1[nH]c2c(c1C(=O)OC)C13CC1CN(C(=O)c1cc4cc(NC(=O)c5cc6ccccc6o5)ccc4[nH]1)C3=CC2=O (centres undefined)', 79),
  ('COC(=O)c1c(C)[nH]c2c1[C@@]13CC1CN(C(=O)c1cc4cc(OC)c(OC)c(OC)c4[nH]1)C3=CC2=O (mixture of isomers)', 80),
  ('COC(=O)c1[nH]c2c(c1C(=O)OC)C13CC1CN(C(=O)c1cc4cc(OC)ccc4[nH]1)C3=CC2=O (centres undefined)', 49);
